I'd be grateful if you could share measured kon for these entries.
Molecular target: T1, cynomolgus monkey B7-H4 (recombinant, BLI) (cynomolgus monkey, UniProt Q7Z7D3 25-259 (human entry))
T1 construct: also called Cynomolgus B7-H4
T1 sequence: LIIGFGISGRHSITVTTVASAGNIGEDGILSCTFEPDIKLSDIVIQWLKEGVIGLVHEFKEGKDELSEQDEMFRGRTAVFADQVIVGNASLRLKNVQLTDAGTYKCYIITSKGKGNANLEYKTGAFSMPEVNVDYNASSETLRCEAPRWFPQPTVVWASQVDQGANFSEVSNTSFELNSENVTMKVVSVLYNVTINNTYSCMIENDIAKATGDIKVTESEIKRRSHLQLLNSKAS
Assay: BLI, antigen on Protein A tips;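 note: Anti-B7-H4 antibodies assessed for affinity toward the B7-H4 extracellular domain using biolayer interferometry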
State just the number; it will be interpreted in M⁻¹ s⁻¹.

Exercise: Need kon of B7-H4 antibody 20502.1 (antibody, human IgG1, kappa, V domains shown, human IgG1/kappa) VH: QLQLQESGPGLVKPSETLSLTCTVSGGSIKSGSYYWGWIRQPPGKGLEWIGNIYYSGSTYYNPSLKSRVTISVDTSKNQFSLKLSSVTAADTAVYYCAREGSYPNQFDPWGQGILVTVSS VL: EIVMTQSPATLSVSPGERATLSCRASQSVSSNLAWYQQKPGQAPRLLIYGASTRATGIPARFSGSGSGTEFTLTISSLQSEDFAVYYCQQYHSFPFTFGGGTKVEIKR , thanks.
Solution: 528000

Exercise: Further, for B7-H4 antibody 20502 (antibody, V domains shown, human IgG1/kappa) VH: QLQLQESGPGLVKPSETLSLTCTVSGGSIKSGSYYWGWIRQPPGKGLEWIGNIYYSGSTYYNPSLRSRVTISVDTSKNQFSLKLSSVTAADTAVYYCAREGSYPNQFDPWGQGTLVTVSS VL: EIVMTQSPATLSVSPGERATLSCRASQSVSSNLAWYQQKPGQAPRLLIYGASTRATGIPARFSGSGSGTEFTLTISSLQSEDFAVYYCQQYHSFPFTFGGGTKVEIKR ?
Solution: 962000

Exercise: For B7-H4 antibody 20516 (antibody, human IgG1, kappa, V domains shown, human IgG1/kappa) VH: QVQLQESGPGLVKPSETLSLTCTVSGGSIISYYWGWIRQPPGKGLEWIGYIYSSGSTSYNPSLKSRVTISVDTSKNQFSLKLSSVTAADTAVYYCARGSGLYAAPDYGLDVWGQGTTVTVSS VL: DIQMTQSPSTLSASVGDRVTITCRASQSISSWLAWYQQKPGKAPKLLIYKASSLESGVPSRFSGSGSGTEFTLTISSLQPDDFATYYCQQDNSFPFTFGGGTKVEIKR then?
Solution: 445000
